- TEST SYSTEM: human GPR119 (Homo sapiens, UniProt Q8TDV5)
- Construct: expression vector for human GPR119 cDNA (Acc. No. NP_848566); Min-6/hGPR119
- Sequence (Q8TDV5 whole entry): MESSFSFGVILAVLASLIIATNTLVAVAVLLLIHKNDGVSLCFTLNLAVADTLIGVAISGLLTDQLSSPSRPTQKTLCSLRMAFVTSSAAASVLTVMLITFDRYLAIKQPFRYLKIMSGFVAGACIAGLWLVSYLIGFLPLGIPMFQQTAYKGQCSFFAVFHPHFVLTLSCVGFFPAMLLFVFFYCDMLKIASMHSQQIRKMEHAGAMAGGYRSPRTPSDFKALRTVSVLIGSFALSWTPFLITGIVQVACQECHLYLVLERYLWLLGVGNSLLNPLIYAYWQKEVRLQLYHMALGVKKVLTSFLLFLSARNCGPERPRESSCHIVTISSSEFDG
- MEASUREMENT NOTES: AlphaScreen cAMP assay in MIN6 cells stably transfected with human GPR119
- SETTINGS: Min-6/hGPR119 cells, 45 min at room temperature
Consider the cut-off 300 nM. If the recorded EC50 is strictly smaller, the label is Fulfilled; if not, the label is Not fulfilled.

| COMPOUND | LABEL CLASS |
| --- | --- |
| COCC(C)NC(=O)c1ccc(-c2ncc(C(=O)N(C3CC3)C3CCN(C(=O)OC(C)(C)C)CC3)cn2)cc1F (stereo not shown) | Fulfilled |
| CC(C)(C)OC(=O)N1CCC(N(C(=O)c2cnc(-c3ccc(C(=O)NCC4CCCO4)c(F)c3)nc2)C2CC2)CC1 (stereo not shown) | Fulfilled |
| CC(C)(C)OC(=O)N1CCC(N(C(=O)c2coc(-c3cnco3)n2)C2CC2)CC1 | Not fulfilled |
| CNS(=O)(=O)c1ccc(-c2ncc(C(=O)N(C3CC3)C3CCN(C(=O)OC(C)(C)C)CC3)cn2)cc1 | Fulfilled |
| COCC(C)NC(=O)Cc1ccc(-c2ncc(C(=O)N(C3CC3)C3CCN(C(=O)OC(C)(C)C)CC3)cn2)cc1 (stereo not shown) | Not fulfilled |
| CN(CC1(C)COC1)C(=O)c1ccc(-c2ncc(C(=O)N(C3CC3)C3CCN(C(=O)OC(C)(C)C)CC3)cn2)cc1 | Not fulfilled |
